Form field: boiling point (one value per entry).
Write down the value, and be sure its unit follows.

Data request: What does the data say about its boiling point? Entry: `O=C(c1cccs1)c1cccs1`
Data returned: 326 °C

Data request: What does the data say about its boiling point? Entry: O=CC12CC=CCC1C1CC=CCC1O2 (stereo unspecified)
Data returned: 307 °C

* * *

MEASURE: boiling point (°C)
Expressed in °C, but write only the number.

Before answering, review these 8 worked examples.
>  <COMPOUND>
BrCCBr

>  <boiling point / °C>
132

$$$$
>  <COMPOUND>
CC(C)NNC(C)C

>  <boiling point / °C>
125

$$$$
>  <COMPOUND>
Cc1cc(Cl)nn1C

>  <boiling point / °C>
211

$$$$
>  <COMPOUND>
CC1CCC2CC1C2(C)C (centres undefined)

>  <boiling point / °C>
160

$$$$
>  <COMPOUND>
Oc1cccc(O)c1

>  <boiling point / °C>
280

$$$$
>  <COMPOUND>
CCOP(=S)(OCC)Oc1ccc([N+](=O)[O-])cc1

>  <boiling point / °C>
375

$$$$
>  <COMPOUND>
FC(F)=C(F)C(F)(F)F

>  <boiling point / °C>
-29.6

$$$$
>  <COMPOUND>
CCC(C)CCC(C)O (centres undefined)

>  <boiling point / °C>
170

$$$$

Data request: What does the data say about its boiling point? Entry: `CC(C)=CC=C(C)C`
Data returned: 134

Data request: What does the data say about its boiling point? Entry: `CCCCCC(O)(CC)CC`
Data returned: 199

Data request: What does the data say about its boiling point? Entry: `c1ccc2[nH]ccc2c1`
Data returned: 254

Data request: What does the data say about its boiling point? Entry: `CC(C)=CC(C)(C)C`
Data returned: 105

Data request: What does the data say about its boiling point? Entry: `COC(Cc1ccccc1)OC`
Data returned: 220

Cited source for all entries: the OPERA property sets (Mansouri et al. 2018)
